test system: Striatum; assay: Ratio of drug uptake in Wistar rat striatum after 2 mins to Wistar rat striatum after 30 mins; type: ADME, tissue-based; conditions: in vivo
EXPERIMENTAL_ENDPOINT: Ratio

Previously resolved entries follow.
CCN(CC)C(=O)C1Sc2ccccc2-c2c1c1cc(F)ccc1n2CCF (racemic) :: 1.6
CCN(CC)C(=O)C1Sc2ccc(F)cc2-c2c1c1ccccc1n2CCF (racemic) :: 2.11
CCN(CC)C(=O)C1Sc2ccccc2-c2c1c1cccc(OC)c1n2CCF (racemic) :: 5

1 = CCN(CC)C(=O)C1Sc2ccccc2-c2c1c1cc(C)ccc1n2CCF (racemic)
2 = CCN(CC)C(=O)C1Sc2ccccc2-c2c1c1ccc(OC)cc1n2CCF (racemic)
Lookup: Please compare: 1 and 2 . Report which one has the smaller Ratio value. Kindly state the label of the option you pick.
Found: 1
